- Test system: KynR/P_H16_RS14030 L-kynurenine biosensor (pEH136);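 also: RFP excited at 585 nm with emission read at 620 nm, culture medium blanks subtracted from fluorescence and absorbance prior to normalisation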
- assayText: relative induction of RFP reporter vs primary effector (background-corrected); higher = stronger activation of the biosensor
- conditionContext: inducer concentration 5 mM; 6 h; Cupriavidus necator H16; minimal medium + 0.4% gluconate
measuredProperty: relative induction of RFP reporter
Number first, unit second.

For OC[C@@H](O)[C@@H](O)[C@H](O)[C@H](O)CO the molecule record lists relative induction of RFP reporter as 0.488%

For O=S(=O)(O)CCO [isethionate] the molecule record lists relative induction of RFP reporter as 0.0938%

For C[C@H](N)C(=O)O the molecule record lists relative induction of RFP reporter as -0.519%

For O=c1[nH]cnc2nc[nH]c12 the molecule record lists relative induction of RFP reporter as -0.263%

For O=C(O)[C@@H](O)[C@@H](O)[C@H](O)[C@@H](O)C(=O)O [glucarate] the molecule record lists relative induction of RFP reporter as 0.0265%

For O=C(O)CC(CC(=O)O)C(=O)O [tricarballylate] the molecule record lists relative induction of RFP reporter as -0.332%

For O=c1cc[nH]c(=O)[nH]1 the molecule record lists relative induction of RFP reporter as 1.02%
